Tested on: HBEC-5i cells
Condition Set: FD4 content in basolateral side after 24 h incubation with compound, then 2 h FD4; untreated BBB 10.3%
Peptide text beside a SMILES is read from it. * marks the point of attachment. X2 = CCC1=C(C)c2cc3[nH]c(cc4nc(cc5[nH]c(cc1n2)c(C)c5CCC(=O)O)C(CCC(=O)*)=C4C)c(C)c3CC; X4 = CCC1=C(C)c2cc3[nH]c(cc4nc(cc5[nH]c(cc1n2)c(C)c5CCC(=O)*)C(CCC(=O)O)=C4C)c(C)c3CC
Attribute Measured: BBB FD4 (%)
Reply numerically in %, unit not repeated.

Reference set, count: 2
CCC1=C(C)c2cc3[nH]c(cc4nc(cc5[nH]c(cc1n2)c(C)c5CCC(=O)O)C(CCC(=O)NCCCC[C@H](NC(=O)[C@H](Cc1ccc(O)cc1)NC(=O)[C@H](CCC(=O)O)NC(=O)[C@H](CCC(=O)O)NC(=O)[C@H](CCC(N)=O)NC(=O)[C@@H](NC(=O)CNC(=O)[C@@H](N)CO)[C@@H](C)O)C(N)=O)=C4C)c(C)c3CC [Compound P4-MP] (H-SGTQEEYK(X2)-NH2) :: 15.6
CCC1=C(C)c2cc3[nH]c(cc4nc(cc5[nH]c(cc1n2)c(C)c5CCC(=O)N[C@H](C(=O)N[C@@H](CCC(N)=O)C(=O)N[C@@H](CCC(N)=O)C(=O)N[C@@H](CC(C)C)C(=O)N[C@H](C(=O)N[C@@H](CCCCN)C(=O)N[C@@H](CCCNC(=N)N)C(=O)N[C@@H](Cc1ccccc1)C(=O)N[C@@H](CO)C(=O)N[C@@H](CC(C)C)C(N)=O)[C@@H](C)O)C(C)C)C(CCC(=O)O)=C4C)c(C)c3CC [MP-P1] (X4-VQQLTKRFSL-NH2) :: 19.9

Lab note: next molecule to report on.
Query: Consider the molecule shown here: CCC1=C(C)c2cc3[nH]c(cc4nc(cc5[nH]c(cc1n2)c(C)c5CCC(=O)O)C(CCC(=O)NCCCC[C@H](NC(=O)[C@H](CC(C)C)NC(=O)[C@H](CO)NC(=O)[C@H](Cc1ccccc1)NC(=O)[C@H](CCCNC(=N)N)NC(=O)[C@H](CCCCN)NC(=O)[C@@H](NC(=O)[C@H](CC(C)C)NC(=O)[C@H](CCC(N)=O)NC(=O)[C@H](CCC(N)=O)NC(=O)[C@@H](N)C(C)C)[C@@H](C)O)C(N)=O)=C4C)c(C)c3CC [Compound P2-MP] (H-VQQLTKRFSLK(X2)-NH2) What is its recorded BBB FD4 (%)?
Result: 14.5

----------
System: HBEC-5i cells
Condition Set: concentrations of up to 50 µM, 24 h
Peptide text beside a SMILES is read from it. * marks the point of attachment. X1 = C=CC1=C(C)c2cc3[nH]c(cc4nc(cc5[nH]c(cc1n2)c(C)c5CCC(=O)*)C(CCC(=O)O)=C4C)c(C)c3C=C; X3 = C=CC1=C(C)c2cc3[nH]c(cc4nc(cc5[nH]c(cc1n2)c(C)c5CCC(=O)O)C(CCC(=O)*)=C4C)c(C)c3C=C; X2 = CCC1=C(C)c2cc3[nH]c(cc4nc(cc5[nH]c(cc1n2)c(C)c5CCC(=O)O)C(CCC(=O)*)=C4C)c(C)c3CC
Attribute Measured: altered cell viability

C=CC1=C(C)c2cc3[nH]c(cc4nc(cc5[nH]c(cc1n2)c(C)c5CCC(=O)O)C(CCC(=O)NCCCC[C@H](NC(=O)[C@H](Cc1ccc(O)cc1)NC(=O)[C@H](CCC(=O)O)NC(=O)[C@H](CCC(=O)O)NC(=O)[C@H](CCC(N)=O)NC(=O)[C@@H](NC(=O)CNC(=O)[C@@H](N)CO)[C@@H](C)O)C(N)=O)=C4C)c(C)c3C=C [Compound P4-PP] (H-SGTQEEYK(X3)-NH2) :: none
C=CC1=C(C)c2cc3[nH]c(cc4nc(cc5[nH]c(cc1n2)c(C)c5CCC(=O)NCCCC[C@H](NC(=O)[C@H](CC(C)C)NC(=O)[C@H](CO)NC(=O)[C@H](Cc1ccccc1)NC(=O)[C@H](CCCNC(=N)N)NC(=O)[C@H](CCCCN)NC(=O)[C@@H](NC(=O)[C@H](CC(C)C)NC(=O)[C@H](CCC(N)=O)NC(=O)[C@H](CCC(N)=O)NC(=O)[C@@H](N)C(C)C)[C@@H](C)O)C(N)=O)C(CCC(=O)O)=C4C)c(C)c3C=C [Compound P2-PP] (H-VQQLTKRFSLK(X1)-NH2) :: none
CCC1=C(C)c2cc3[nH]c(cc4nc(cc5[nH]c(cc1n2)c(C)c5CCC(=O)O)C(CCC(=O)NCCCC[C@H](NC(=O)[C@H](Cc1ccc(O)cc1)NC(=O)[C@H](CCC(=O)O)NC(=O)[C@H](CCC(=O)O)NC(=O)[C@H](CCC(N)=O)NC(=O)[C@@H](NC(=O)CNC(=O)[C@@H](N)CO)[C@@H](C)O)C(N)=O)=C4C)c(C)c3CC [Compound P4-MP] (H-SGTQEEYK(X2)-NH2) :: none
